assay text: Half life in male rat at 56 mg/kg, po
Assay type: ADME, organism-based
Design: dose 56 mg/kg, route oral
condition context: in vivo
readout: half-life (h)
Answer with a number only, understood to be in h.

Ask: Provide only the value of recorded half-life for O=C1c2ccccc2-n2c1nc1ccccc1c2=O
Result: 5.6

###

assay text: Solubility in simulated intestinal fluid at pH 7.6 by HPLC method
Format: physicochemical
Listed here are molecules together with their documented solubility.
Field note: include the unit after the figure.

Ask: Provide solubility value for the following molecule: O=C1c2cc(Br)ccc2-n2c1nc1ccccc1c2=O
Result: 92.9 µM

Ask: Tell me measured solubility for O=C1c2cc(Br)ccc2-n2c1nc1ccncc1c2=O please.
Result: 34.4 µM

Ask: Give the reported value of solubility for this record: O=C1c2cc(Cl)ccc2-n2c1nc1ccc(F)cc1c2=O
Result: 29.8 µM

Ask: Report solubility for O=C1c2cc(Cl)ccc2-n2c1nc1ncccc1c2=O
Result: 18.9 µM

Ask: Supply reported solubility belonging to this molecule: O=C1C2=Nc3ccccc3CN2c2ccc(Cl)cc21
Result: 19.3 µM

Ask: Determine from records and report solubility for O=C1c2ccccc2-n2c1nc1ccc(Br)cc1c2=O
Result: 49.4 µM

Ask: Consider the molecule O=C1c2cc(Cl)ccc2-n2c1nc1cc(F)ccc1c2=O and give its recorded solubility.
Result: 10.3 µM

Ask: Tell me solubility reported for CCOC(=O)c1ccc2c(c1)C(=O)c1nc3ccccc3c(=O)n1-2
Result: 11.1 µM

###

Test system: Vero
assay text: Cytotoxicity against african green monkey Vero cells
Type: cell-based, Chlorocebus sabaeus
condition context: Chlorocebus sabaeus, Vero; read-out: IC50
readout: log10(IC50) (log10 of the value in µg/mL)
Please note: log10 values; quantity IC50; unit µg/mL.

Example entries and their recorded answers appear below.
smi: O=C1C2=Nc3ccccc3CN2c2ccc(OC(F)(F)F)cc21
log10(IC50): 0.11
//
smi: O=C1c2ccccc2-n2c1nc1ccc([N+](=O)[O-])cc1c2=O
log10(IC50): 1.81
//
smi: O=C1C2=Nc3ccncc3CN2c2ccc(OC(F)(F)F)cc21
log10(IC50): 0.72
//
smi: O=C1c2ccc(Cl)cc2-n2c1nc1ccncc1c2=O
log10(IC50): 0.95
//
smi: CCOC(=O)c1ccc2c(c1)C(=O)c1nc3c(OC)cccc3c(=O)n1-2
log10(IC50): 1.20
//
smi: O=C1C2=Nc3ccncc3CN2c2ccc(Cl)cc21
log10(IC50): 0.57
//
smi: O=C1c2cc(OC(F)(F)F)ccc2-n2c1nc1ccncc1c2=O
log10(IC50): 0.76
//
smi: O=C1c2cc(F)ccc2-n2c1nc1ncccc1c2=O
log10(IC50): -0.52

Let us move to another entry and its log10(IC50).
Ask: Return the recorded log10(IC50) value; entry: O=C1c2cc(OC(F)(F)F)ccc2-n2c1nc1cnccc1c2=O
Result: 0.73

###

assay text: Cmax in C57BL/6 mouse at 40 mg/kg, po formulated in 20% DMSODMSO, 20% PEG400, 60% (30% HP-beta-CD in water)
Assay type: ADME, organism-based
Design: dose 40 mg/kg, route oral
condition context: in vivo
readout: Cmax (ng/mL)
Expressed in ng/mL, but write only the number.

Ask: Using known records, supply Cmax for O=C1C2=Nc3ccccc3CN2c2ccc(Cl)cc21
Result: 371
